// provenance: patent US4216214A

measurementDescription: Sub-acute toxicity by oral means with rats
details: rat, in vivo, 50 mg/kg
attributeMeasured: mortality (%)

[[record]]
structuresmiles = "CC(C)(C)c1ccc(N(CCN2CCCCC2)c2cccc(Cl)c2)cc1"
valueunit = "%"
assayresult = 8.33


###

measurementDescription: Acute toxicity in rats
details: rat, in vivo; Sprague-Dawley rats 150 to 180 g, oral; read-out: LD-50 by the oral route in rats
attributeMeasured: LD50

[[record]]
compound = "CC(C)(C)c1ccc(N(CCN2CCCCC2)c2cccc(Cl)c2)cc1 [Example 1]"
attributemeasured = "LD50"
assayresult = "> 3500 mg/kg"


###

Tested on: Ileum of Guinea Pig (agonist Histamine)
measurementDescription: Test on isolated organ: contraction by histamine
Format: cell-based
details: Cavia porcellus, agonist Histamine 0.05 μ, read-out: Cl-50 of products, Histamine
pIC50: −log10 of the molar value.
pIC50 listing for selected compounds.
attributeMeasured: pIC50

[[record]]
structuresmiles = "CCN(CC)CCN(c1ccc(C(C)(C)C)cc1)c1cccc(Cl)c1"
assayresult = 4.56

[[record]]
structuresmiles = "CC(C)(C)c1ccc(N(CCN2CCCCC2)c2cccc(Cl)c2)cc1"
assayresult = 5.65

[[record]]
structuresmiles = "CC(C)(C)c1ccc(N(CCN2CCCC2)c2cccc(Cl)c2)cc1"
assayresult = 4.70

